# study-system: DCLK1 (human) (UniProt O15075)
# Sequence (O15075 whole entry, looked up): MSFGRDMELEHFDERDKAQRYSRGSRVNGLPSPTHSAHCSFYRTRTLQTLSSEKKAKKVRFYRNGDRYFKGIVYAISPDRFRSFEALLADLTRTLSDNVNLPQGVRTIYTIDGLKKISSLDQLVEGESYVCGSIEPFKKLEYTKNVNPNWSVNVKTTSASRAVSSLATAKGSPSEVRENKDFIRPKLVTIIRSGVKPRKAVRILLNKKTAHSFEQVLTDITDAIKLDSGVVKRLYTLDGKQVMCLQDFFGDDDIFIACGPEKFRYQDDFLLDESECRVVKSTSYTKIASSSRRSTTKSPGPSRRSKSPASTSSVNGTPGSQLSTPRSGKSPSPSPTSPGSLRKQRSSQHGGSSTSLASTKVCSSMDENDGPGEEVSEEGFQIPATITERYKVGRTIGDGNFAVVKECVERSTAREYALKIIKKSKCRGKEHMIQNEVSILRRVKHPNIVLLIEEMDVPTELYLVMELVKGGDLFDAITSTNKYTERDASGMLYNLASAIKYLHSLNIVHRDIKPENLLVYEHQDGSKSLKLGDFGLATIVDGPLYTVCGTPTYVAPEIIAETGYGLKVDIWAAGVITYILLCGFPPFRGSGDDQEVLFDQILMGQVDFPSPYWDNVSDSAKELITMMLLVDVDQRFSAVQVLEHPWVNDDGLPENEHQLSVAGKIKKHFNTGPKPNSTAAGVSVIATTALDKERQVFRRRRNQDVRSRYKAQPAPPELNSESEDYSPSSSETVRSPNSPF
# protocol-summary: KINOMEscan competition binding
# condition-summary: compound 10.0 µM
observable: kinase still bound, per cent of control (%)
Give the value in % but do not write % after it.

COc1cc(C(=O)NC2CCN(C)CC2)ccc1Nc1ncc2c(n1)N(C1CCCC1)[C@@H]1CCC[C@@H]1C(=O)N2C ... 2.4
CC(C)Oc1cc(N2CCN(C)CC2)ccc1Nc1ncc2c(n1)N(C)c1ccccc1C(=O)N2 ... 1.2
CCN1C(=O)CC(c2ccccc2)N(C2CCCC2)c2nc(Nc3ccc(C(=O)NC4CCN(C)CC4)cc3OC)ncc21 (stereo not drawn) ... 23
CCN1C(=O)CCN(C2CCCC2)c2nc(Nc3ccc(N4CCC(O)CC4)cn3)ncc21 ... 8.2
COc1cc(N2CCN(C)CC2)ccc1Nc1ncc2c(n1)N(C)c1sccc1C(=O)N2C ... 1.4

Read off the recorded kinase still bound, per cent of control for COc1cc(N2CCN(C)CC2)ccc1Nc1ncc2c(n1)N(C(C)C)c1ccccc1C(=O)N2C
1.2

Read off the recorded kinase still bound, per cent of control for COc1cc(C(=O)NC2CCN(C)CC2)ccc1Nc1ncc2c(n1)N(C1CCCC1)C(C)CC(=O)N2C (stereo not drawn)
4

Read off the recorded kinase still bound, per cent of control for COc1cc(N2CCC(N3CCN(C)CC3)CC2)ccc1Nc1ncc2c(n1)N(C1CCCC1)C(C)CC(=O)N2C (stereo not drawn)
5.2

###

# Tested on: ABL1 (human), P00519 [F317I]
# Sequence (P00519 whole entry F317I, looked up): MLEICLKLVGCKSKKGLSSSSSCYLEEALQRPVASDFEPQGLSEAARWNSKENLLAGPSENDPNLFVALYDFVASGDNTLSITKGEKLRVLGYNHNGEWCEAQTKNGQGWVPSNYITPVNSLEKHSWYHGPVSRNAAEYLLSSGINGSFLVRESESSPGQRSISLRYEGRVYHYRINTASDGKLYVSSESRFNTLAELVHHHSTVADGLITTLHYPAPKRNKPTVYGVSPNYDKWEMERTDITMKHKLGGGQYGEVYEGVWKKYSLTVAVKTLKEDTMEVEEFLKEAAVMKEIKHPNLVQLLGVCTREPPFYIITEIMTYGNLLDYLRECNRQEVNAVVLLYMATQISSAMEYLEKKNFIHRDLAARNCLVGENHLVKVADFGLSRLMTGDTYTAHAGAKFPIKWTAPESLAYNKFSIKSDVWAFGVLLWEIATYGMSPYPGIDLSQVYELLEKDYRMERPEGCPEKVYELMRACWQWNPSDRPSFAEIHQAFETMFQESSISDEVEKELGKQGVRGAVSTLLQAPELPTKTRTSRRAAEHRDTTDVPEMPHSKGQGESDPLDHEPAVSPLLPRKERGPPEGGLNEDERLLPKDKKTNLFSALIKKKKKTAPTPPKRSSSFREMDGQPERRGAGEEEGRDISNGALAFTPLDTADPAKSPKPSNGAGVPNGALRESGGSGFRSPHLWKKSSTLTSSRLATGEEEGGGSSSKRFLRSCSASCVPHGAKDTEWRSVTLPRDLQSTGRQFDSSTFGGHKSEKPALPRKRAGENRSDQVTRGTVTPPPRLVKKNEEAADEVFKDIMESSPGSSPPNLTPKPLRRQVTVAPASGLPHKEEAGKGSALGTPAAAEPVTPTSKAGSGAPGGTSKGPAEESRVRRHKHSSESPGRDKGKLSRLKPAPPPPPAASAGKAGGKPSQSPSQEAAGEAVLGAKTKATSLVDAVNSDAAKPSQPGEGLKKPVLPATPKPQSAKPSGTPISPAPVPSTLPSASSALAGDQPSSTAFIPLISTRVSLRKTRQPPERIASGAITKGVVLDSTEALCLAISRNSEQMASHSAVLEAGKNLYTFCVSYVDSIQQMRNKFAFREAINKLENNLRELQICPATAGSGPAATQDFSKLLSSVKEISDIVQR
# protocol-summary: KINOMEscan competition binding
# condition-summary: compound 10.0 µM
observable: kinase still bound, per cent of control (%)
Give the value in % but do not write % after it.

Completed entries (count: 2):
COc1cc(N2CCC(O)CC2)ccc1Nc1ncc2c(n1)N(C)c1ccccc1C(=O)N2C ... 7.4
COc1cc(N2CCN(C)CC2)ccc1Nc1ncc2c(n1)N(C)c1ccccc1C(=O)N2C ... 5

Please examine the following record next.
Read off the recorded kinase still bound, per cent of control for COc1cc(N2CCN(C)CC2)ccc1Nc1ncc2c(n1)N(C(C)C)c1ccccc1C(=O)N2C
22

###

kinase still bound, per cent of control values for the compounds below.
# study-system: PDGFRA (human) (UniProt P16234)
# Sequence (P16234 whole entry, looked up): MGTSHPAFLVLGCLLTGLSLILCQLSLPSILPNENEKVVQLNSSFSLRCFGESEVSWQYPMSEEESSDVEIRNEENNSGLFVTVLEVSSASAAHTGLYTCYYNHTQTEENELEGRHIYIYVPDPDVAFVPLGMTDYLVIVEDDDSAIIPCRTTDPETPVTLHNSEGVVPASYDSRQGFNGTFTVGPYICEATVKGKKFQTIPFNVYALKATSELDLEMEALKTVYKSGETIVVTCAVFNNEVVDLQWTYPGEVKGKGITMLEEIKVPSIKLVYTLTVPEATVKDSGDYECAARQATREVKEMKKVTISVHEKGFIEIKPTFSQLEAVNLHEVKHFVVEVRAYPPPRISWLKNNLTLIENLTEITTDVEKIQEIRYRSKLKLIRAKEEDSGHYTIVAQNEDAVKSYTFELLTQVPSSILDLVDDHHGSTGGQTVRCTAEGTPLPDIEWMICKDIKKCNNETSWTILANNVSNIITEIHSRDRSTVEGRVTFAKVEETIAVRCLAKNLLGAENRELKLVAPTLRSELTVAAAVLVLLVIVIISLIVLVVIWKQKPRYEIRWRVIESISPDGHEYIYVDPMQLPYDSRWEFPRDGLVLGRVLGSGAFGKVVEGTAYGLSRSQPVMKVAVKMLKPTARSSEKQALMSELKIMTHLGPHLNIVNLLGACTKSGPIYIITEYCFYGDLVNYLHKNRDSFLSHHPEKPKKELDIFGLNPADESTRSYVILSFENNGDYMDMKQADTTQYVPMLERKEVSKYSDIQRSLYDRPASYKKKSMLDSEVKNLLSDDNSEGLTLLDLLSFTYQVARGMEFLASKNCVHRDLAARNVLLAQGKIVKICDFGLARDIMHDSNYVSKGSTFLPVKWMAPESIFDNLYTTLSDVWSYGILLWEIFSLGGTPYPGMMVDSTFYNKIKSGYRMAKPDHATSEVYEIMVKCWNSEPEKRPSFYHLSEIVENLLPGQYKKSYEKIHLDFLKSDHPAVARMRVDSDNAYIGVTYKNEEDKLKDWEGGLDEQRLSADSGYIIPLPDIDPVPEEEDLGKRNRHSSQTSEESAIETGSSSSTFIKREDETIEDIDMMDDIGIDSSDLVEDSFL
# protocol-summary: KINOMEscan competition binding
# condition-summary: compound 10.0 µM
I'd appreciate it if you included the unit after the number.

Completed entries (count: 4):
CCN1CCN(Cc2cc(NC(=O)c3cccc4cc(-c5ccc(/C=C6\SC(=O)NC6=O)o5)ccc34)cc(C(F)(F)F)c2)CC1 ... 0.55%
COc1cc(N2CCN(C)CC2)ccc1Nc1ncc2c(n1)N(C)c1sccc1C(=O)N2C ... 87%
COc1cc(N2CCC(O)CC2)ccc1Nc1ncc2c(n1)N1CCc3cccc(c31)C(=O)N2C ... 98%
O=C1NC(=O)/C(=C/c2c[nH]c(=O)c(-c3ccc(N4CCNCC4)nc3)c2)S1 ... 99%

Read off the recorded kinase still bound, per cent of control for CN1C(=O)c2ccccc2N(C)c2nc(Nc3ccc(N4CCC(O)CC4)cn3)ncc21
8%

Read off the recorded kinase still bound, per cent of control for CS(=O)(=O)Nc1ccc(-c2cc(/C=C3\SC(=N)NC3=O)c[nH]c2=O)cc1
8%

Read off the recorded kinase still bound, per cent of control for COc1cc(N2CCN(C)CC2)ccc1Nc1ncc2c(n1)N(C)c1ccccc1N(C)C2=O
100%

Read off the recorded kinase still bound, per cent of control for CN1CCN(c2ccc(C(=O)Nc3ncc4c(n3)N(C)c3ccccc3C(=O)N4C)cc2)CC1
100%

Read off the recorded kinase still bound, per cent of control for CN1C(=O)c2ccccc2N(C)c2nc(Nc3ccc(N4CCC(O)CC4)cc3)ncc21
100%

###

# study-system: ADCK3 (human) (UniProt Q8NI60)
# Sequence (Q8NI60 whole entry, looked up): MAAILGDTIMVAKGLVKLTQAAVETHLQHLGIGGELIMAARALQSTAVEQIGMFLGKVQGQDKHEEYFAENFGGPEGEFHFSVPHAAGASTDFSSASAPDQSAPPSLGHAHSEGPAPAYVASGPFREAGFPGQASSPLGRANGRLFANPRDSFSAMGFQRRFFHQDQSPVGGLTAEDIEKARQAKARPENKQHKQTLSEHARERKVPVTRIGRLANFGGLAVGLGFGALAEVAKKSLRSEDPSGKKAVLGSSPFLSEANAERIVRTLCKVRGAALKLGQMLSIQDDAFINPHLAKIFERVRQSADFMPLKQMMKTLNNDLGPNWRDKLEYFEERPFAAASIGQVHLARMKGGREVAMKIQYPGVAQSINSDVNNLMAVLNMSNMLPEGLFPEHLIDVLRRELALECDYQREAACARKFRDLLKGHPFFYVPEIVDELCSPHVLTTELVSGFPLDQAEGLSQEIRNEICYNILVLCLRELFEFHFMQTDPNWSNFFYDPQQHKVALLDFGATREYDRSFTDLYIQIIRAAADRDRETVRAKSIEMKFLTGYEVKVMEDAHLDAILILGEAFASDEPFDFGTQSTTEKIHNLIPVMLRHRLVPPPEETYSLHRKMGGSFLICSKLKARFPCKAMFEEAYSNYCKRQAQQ
# protocol-summary: KINOMEscan competition binding
# condition-summary: compound 10.0 µM
observable: kinase still bound, per cent of control (%)
Give the value in % but do not write % after it.

Completed entries (count: 2):
CN1C(=O)c2ccccc2N(C)c2nc(Nc3ccc(N4CCC(O)CC4)cc3)ncc21 ... 100
O=C1NC(=O)/C(=C/c2c[nH]c(=O)c(-c3ccc(N4CCNCC4)nc3)c2)S1 ... 76

Read off the recorded kinase still bound, per cent of control for COc1cc(N2CCN(C)CC2)ccc1Nc1ncc2c(n1)N(C)c1ccccc1N(C)C2=O
85

###

kinase still bound, per cent of control values for the compounds below.
# study-system: MAPK1 (human)
# protocol-summary: KINOMEscan competition binding
# condition-summary: compound 10.0 µM
Give the value in % but do not write % after it.

CN1CCN(c2ccc(C(=O)Nc3ncc4c(n3)N(C)c3ccccc3C(=O)N4C)cc2)CC1 ... 100

Read off the recorded kinase still bound, per cent of control for N=C1NC(=O)/C(=C/c2ccc(-c3csc4ccccc34)o2)S1
29

Read off the recorded kinase still bound, per cent of control for COc1cc(N2CCC(O)CC2)ccc1Nc1ncc2c(n1)N1CCc3cccc(c31)C(=O)N2C
75

###

# study-system: CAMKK2 (human)
# protocol-summary: KINOMEscan competition binding
# condition-summary: compound 10.0 µM
param class (str): category from kinase still bound, per cent of control; see ranges low range = under 20%, mid range = from 20% up to 30%, high range = 30% and over

See these solved cases before continuing.
COc1cc(N2CCN(C)CC2)ccc1Nc1ncc2c(n1)N(C)c1sccc1C(=O)N2C ... high range
N=C1NC(=O)/C(=C/c2ccc(-c3ccc(C(N)=O)cc3O)o2)S1 ... high range
CN1C(=O)[C@H]2CCC[C@H]2N(C2CCCC2)c2nc(Nc3ccc(C(N)=O)cc3)ncc21 ... high range
Nc1cnc(/C=C/c2ccc(-c3ccc(S(N)(=O)=O)cc3)o2)cn1 ... mid range
COc1cc(N2CCN(C)CC2)ccc1Nc1ncc2c(n1)N(C)c1ccccc1C(=O)N2C ... low range

In the following, a different compound is considered.
Form: Item = CS(=O)(=O)Nc1ccc(-c2cc(/C=C3\SC(=N)NC3=O)c[nH]c2=O)cc1 ; Class = ?
high range

###

# study-system: MAP2K4 (human)
# protocol-summary: KINOMEscan competition binding
# condition-summary: compound 10.0 µM
Threshold-based label: kinase still bound, per cent of control under 60% gives Met, kinase still bound, per cent of control not under 60% gives Not met.

See these solved cases before continuing.
CN1C(=O)c2ccccc2N(C)c2nc(Nc3ccc(N4CCC(O)CC4)cc3)ncc21 ... Not met
COc1cc(N2CCN(C)CC2)ccc1Nc1ncc2c(n1)Nc1ccccc1NC2=O ... Not met
O=C1NC(=O)C(=Cc2ccc(-c3ccc(S(=O)(=O)N4CCNCC4)cc3)o2)C(=O)N1 ... Met
O=C1NC(=S)S/C1=C\c1ccc(-c2cncc3ccccc23)o1 ... Met
CN1C(=O)[C@H]2CCC[C@H]2N(C2CCCC2)c2nc(Nc3ccc(C(N)=O)cc3)ncc21 ... Met

Could you please tell me whether kinase still bound, per cent of control recorded for CN1CCN(c2ccc(C(=O)Nc3ncc4c(n3)N(C)c3ccccc3C(=O)N4C)cc2)CC1 is less than 60%?
Not met

Could you please tell me whether kinase still bound, per cent of control recorded for O=C1NC(=O)/C(=C/c2c[nH]c(=O)c(-c3ccc(N4CCNCC4)nc3)c2)S1 is less than 60%?
Met

Could you please tell me whether kinase still bound, per cent of control recorded for CSC1=NC(=O)/C(=C/c2c[nH]c(=O)c(-c3ccc(NS(C)(=O)=O)cc3)c2)S1 is less than 60%?
Met

Could you please tell me whether kinase still bound, per cent of control recorded for N=C1NC(=O)/C(=C/c2ccc(-c3cccc4cc[nH]c34)o2)S1 is less than 60%?
Met

###

# study-system: PDGFRB (human)
# protocol-summary: KINOMEscan competition binding
# condition-summary: compound 10.0 µM
param class (str): category from kinase still bound, per cent of control; see ranges lower level: < 10%; middle level: ≥ 10% and < 70%; upper level: ≥ 70%

Form: Item = O=C1NC(=O)/C(=C/c2c[nH]c(=O)c(-c3ccc(C(=O)Nc4ccc(N5CCNCC5)cc4)cc3)c2)S1 ; Class = ?
lower level

Form: Item = N=C1NC(=O)/C(=C/c2ccc(-c3cncc4ccccc34)o2)S1 ; Class = ?
lower level

Form: Item = COc1cc(N2CCN(C)CC2)ccc1Nc1ncc2c(n1)N(C)c1ccccc1C(=O)N2 ; Class = ?
middle level

Form: Item = COc1cc(N2CCN(C)CC2)ccc1Nc1ncc2c(n1)N(C)c1sccc1C(=O)N2C ; Class = ?
middle level

Form: Item = COc1cc(N2CCN(C)CC2)ccc1Nc1ncc2c(n1)Nc1ccccc1NC2=O ; Class = ?
middle level

###

# study-system: GAK (human)
# protocol-summary: KINOMEscan competition binding
# condition-summary: compound 10.0 µM
observable: kinase still bound, per cent of control (%)
Give the value in % but do not write % after it.

Completed entries (count: 4):
COc1cc(N2CCN(C)CC2)ccc1Nc1ncc2c(n1)N(c1ccccc1)CCC(=O)N2 ... 2
COc1cc(N2CCC(O)CC2)ccc1Nc1ncc2c(n1)N(C)c1ccccc1C(=O)N2C ... 8.5
COc1cc(N2CCN(C)CC2)ccc1Nc1ncc2c(n1)N(C1CCCC1)C(C)CC(=O)N2C (stereo not given) ... 1.2
COc1cc(N2CCC(O)CC2)ccc1Nc1ncc2c(n1)N(c1ccccc1)CCC(=O)N2C ... 2

For GAK (human), give the measured kinase still bound, per cent of control of the entry COc1cc(C(=O)NC2CCN(C)CC2)ccc1Nc1ncc2c(n1)N(C1CCCC1)[C@@H]1CCC[C@@H]1C(=O)N2C
13

All figures here come from the kinase profiling compilation of Christmann-Franck et al. (2016).
